target: T1, human neonatal Fc receptor (hFcRn) (human, UniProt P55899 24-290; P61769 21-119); experiment: phage ELISA pH 6;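 note: higher score means stronger binding and above about 3 to 5 exceeds background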
T1 construct: Biotinylated in the ELISA, Octet and yeast assays; also called human FcRn; huFcRn
T1 sequence (P55899 24-290 limits assumed, chain 1 of 2): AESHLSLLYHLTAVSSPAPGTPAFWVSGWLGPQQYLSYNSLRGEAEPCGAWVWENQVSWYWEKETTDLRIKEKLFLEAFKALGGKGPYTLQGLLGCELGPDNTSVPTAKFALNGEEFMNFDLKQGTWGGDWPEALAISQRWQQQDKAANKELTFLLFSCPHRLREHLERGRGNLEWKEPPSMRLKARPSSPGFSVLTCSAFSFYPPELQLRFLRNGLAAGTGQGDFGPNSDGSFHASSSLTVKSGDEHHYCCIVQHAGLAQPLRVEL
T1 sequence (P61769 21-119 limits assumed, chain 2 of 2): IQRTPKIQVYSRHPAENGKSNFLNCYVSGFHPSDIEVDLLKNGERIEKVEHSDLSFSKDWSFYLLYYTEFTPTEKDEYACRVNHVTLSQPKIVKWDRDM

[
  {
    "binder": "L5 isolate with insertion SEQ ID NO: 413 (other) EPKSCDKTHTCPPCPAPELLGGPSVFLFPPKPKDTLMISRTPEVTCVVVDVSHEDPEVKFNWYVDGVEVHNAKTKPREEQYNSTYRVVSVLTVLHQDWLNGKEYKCKVSNKALPAPIEKTISKAKGQPREPQVYTLPPSRDELTKNQVSLTCLVKGFYPSDIAVEWESNGGCMTQYNWCGGGQPENNYKTTPPVLDSDGSFFLYSKLTVDKSRWQQGNVFSCSVMHEALHNHYTQKSLSLSPGK",
    "ELISA score": 65.6
  },
  {
    "binder": "L5 isolate with insertion SEQ ID NO: 402 (other) EPKSCDKTHTCPPCPAPELLGGPSVFLFPPKPKDTLMISRTPEVTCVVVDVSHEDPEVKFNWYVDGVEVHNAKTKPREEQYNSTYRVVSVLTVLHQDWLNGKEYKCKVSNKALPAPIEKTISKAKGQPREPQVYTLPPSRDELTKNQVSLTCLVKGFYPSDIAVEWESNGGCELQERWCGGGQPENNYKTTPPVLDSDGSFFLYSKLTVDKSRWQQGNVFSCSVMHEALHNHYTQKSLSLSPGK",
    "ELISA score": 75.5
  },
  {
    "binder": "L5 isolate with insertion SEQ ID NO: 434 (other) EPKSCDKTHTCPPCPAPELLGGPSVFLFPPKPKDTLMISRTPEVTCVVVDVSHEDPEVKFNWYVDGVEVHNAKTKPREEQYNSTYRVVSVLTVLHQDWLNGKEYKCKVSNKALPAPIEKTISKAKGQPREPQVYTLPPSRDELTKNQVSLTCLVKGFYPSDIAVEWESNGGCMPYEMHCGGGQPENNYKTTPPVLDSDGSFFLYSKLTVDKSRWQQGNVFSCSVMHEALHNHYTQKSLSLSPGK",
    "ELISA score": 56.7
  },
  {
    "binder": "L5 isolate with insertion SEQ ID NO: 436 (other) EPKSCDKTHTCPPCPAPELLGGPSVFLFPPKPKDTLMISRTPEVTCVVVDVSHEDPEVKFNWYVDGVEVHNAKTKPREEQYNSTYRVVSVLTVLHQDWLNGKEYKCKVSNKALPAPIEKTISKAKGQPREPQVYTLPPSRDELTKNQVSLTCLVKGFYPSDIAVEWESNGGCAERQYYCGGGQPENNYKTTPPVLDSDGSFFLYSKLTVDKSRWQQGNVFSCSVMHEALHNHYTQKSLSLSPGK",
    "ELISA score": 55.5
  },
  {
    "binder": "L5 isolate with insertion SEQ ID NO: 496 (other) EPKSCDKTHTCPPCPAPELLGGPSVFLFPPKPKDTLMISRTPEVTCVVVDVSHEDPEVKFNWYVDGVEVHNAKTKPREEQYNSTYRVVSVLTVLHQDWLNGKEYKCKVSNKALPAPIEKTISKAKGQPREPQVYTLPPSRDELTKNQVSLTCLVKGFYPSDIAVEWESNGGCGGPYVFCGGGQPENNYKTTPPVLDSDGSFFLYSKLTVDKSRWQQGNVFSCSVMHEALHNHYTQKSLSLSPGK",
    "ELISA score": 21.3
  },
  {
    "binder": "L5 isolate with insertion SEQ ID NO: 429 (other) EPKSCDKTHTCPPCPAPELLGGPSVFLFPPKPKDTLMISRTPEVTCVVVDVSHEDPEVKFNWYVDGVEVHNAKTKPREEQYNSTYRVVSVLTVLHQDWLNGKEYKCKVSNKALPAPIEKTISKAKGQPREPQVYTLPPSRDELTKNQVSLTCLVKGFYPSDIAVEWESNGGCPPWPERCGGGQPENNYKTTPPVLDSDGSFFLYSKLTVDKSRWQQGNVFSCSVMHEALHNHYTQKSLSLSPGK",
    "ELISA score": 58.3
  },
  {
    "binder": "L5 isolate with insertion SEQ ID NO: 443 (other) EPKSCDKTHTCPPCPAPELLGGPSVFLFPPKPKDTLMISRTPEVTCVVVDVSHEDPEVKFNWYVDGVEVHNAKTKPREEQYNSTYRVVSVLTVLHQDWLNGKEYKCKVSNKALPAPIEKTISKAKGQPREPQVYTLPPSRDELTKNQVSLTCLVKGFYPSDIAVEWESNGGCSRVFKYCGGGQPENNYKTTPPVLDSDGSFFLYSKLTVDKSRWQQGNVFSCSVMHEALHNHYTQKSLSLSPGK",
    "ELISA score": 54.2
  },
  {
    "binder": "L5 isolate with insertion SEQ ID NO: 426 (other) EPKSCDKTHTCPPCPAPELLGGPSVFLFPPKPKDTLMISRTPEVTCVVVDVSHEDPEVKFNWYVDGVEVHNAKTKPREEQYNSTYRVVSVLTVLHQDWLNGKEYKCKVSNKALPAPIEKTISKAKGQPREPQVYTLPPSRDELTKNQVSLTCLVKGFYPSDIAVEWESNGGCMQPWINCGGGQPENNYKTTPPVLDSDGSFFLYSKLTVDKSRWQQGNVFSCSVMHEALHNHYTQKSLSLSPGK",
    "ELISA score": 59.2
  },
  {
    "binder": "L5 isolate with insertion SEQ ID NO: 452 (other) EPKSCDKTHTCPPCPAPELLGGPSVFLFPPKPKDTLMISRTPEVTCVVVDVSHEDPEVKFNWYVDGVEVHNAKTKPREEQYNSTYRVVSVLTVLHQDWLNGKEYKCKVSNKALPAPIEKTISKAKGQPREPQVYTLPPSRDELTKNQVSLTCLVKGFYPSDIAVEWESNGGCWMWAEECGGGQPENNYKTTPPVLDSDGSFFLYSKLTVDKSRWQQGNVFSCSVMHEALHNHYTQKSLSLSPGK",
    "ELISA score": 50.5
  },
  {
    "binder": "L5 isolate with insertion SEQ ID NO: 430 (other) EPKSCDKTHTCPPCPAPELLGGPSVFLFPPKPKDTLMISRTPEVTCVVVDVSHEDPEVKFNWYVDGVEVHNAKTKPREEQYNSTYRVVSVLTVLHQDWLNGKEYKCKVSNKALPAPIEKTISKAKGQPREPQVYTLPPSRDELTKNQVSLTCLVKGFYPSDIAVEWESNGGCHDPEPFCGGGQPENNYKTTPPVLDSDGSFFLYSKLTVDKSRWQQGNVFSCSVMHEALHNHYTQKSLSLSPGK",
    "ELISA score": 57.7
  }
]
